assay: gastric tolerance, ulceration index; design: species or system Charles River rats of the CD strain; conditions: rat, in vivo, po
Assign TD50 at 6 h to each entry below.

// field: TD50 at 6 h; key: CS(=O)(=O)c1ccc(/C(=C2\CCOC2=O)c2ccc(F)cc2)cc1 [4 (E isomer)] ; value = > 1000 mg/kg

// field: TD50 at 6 h; key: CS(=O)(=O)c1ccc(/C(=C2\CCOC2=O)c2ccc(Cl)cc2)cc1 [8 (Z isomer)] ; value = > 1000 mg/kg

// field: TD50 at 6 h; key: NS(=O)(=O)c1ccc(/C(=C2\CCOC2=O)c2ccc(Cl)cc2)cc1 [125 (Z isomer)] ; value = > 1000 mg/kg

###

target: COX-2 (Ovis aries, UniProt P79208); construct: purified enzyme from ewe placenta; from tissue; host or cells: ewe placenta (purified enzyme); assay: inhibition of COX-2 enzymatic activity (PGE2 by EIA); type: biochemical, ewe; settings: purified enzyme from ewe placenta; arachidonic acid 4 μM; n=1 to 4 determinations
Sequence (P79208 17-603): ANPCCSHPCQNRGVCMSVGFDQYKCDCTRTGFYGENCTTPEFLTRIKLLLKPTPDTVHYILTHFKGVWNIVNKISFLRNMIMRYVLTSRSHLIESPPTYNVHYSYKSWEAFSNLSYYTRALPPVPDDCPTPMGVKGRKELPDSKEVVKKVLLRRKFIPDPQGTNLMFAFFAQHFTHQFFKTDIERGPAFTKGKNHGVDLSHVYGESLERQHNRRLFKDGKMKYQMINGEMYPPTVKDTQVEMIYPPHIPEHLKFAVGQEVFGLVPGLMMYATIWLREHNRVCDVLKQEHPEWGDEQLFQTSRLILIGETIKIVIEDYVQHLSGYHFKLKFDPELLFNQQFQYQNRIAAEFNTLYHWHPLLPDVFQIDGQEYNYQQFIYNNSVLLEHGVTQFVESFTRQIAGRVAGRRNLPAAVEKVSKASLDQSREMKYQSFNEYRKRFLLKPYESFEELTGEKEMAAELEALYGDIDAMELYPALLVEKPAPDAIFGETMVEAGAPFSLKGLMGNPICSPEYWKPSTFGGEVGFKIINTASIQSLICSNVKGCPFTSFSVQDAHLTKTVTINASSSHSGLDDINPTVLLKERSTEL
Assign pIC50 to each entry below.
Lab note: report pIC50 as minus log10 of the concentration in molar units, number only.

The reported COX-2 (Ovis aries, UniProt P79208) pIC50 of CS(=O)(=O)c1ccc(/C(=C2\CCOC2=O)c2cccc(Br)c2)cc1 [90 (Z isomer)] is 6.34

The reported COX-2 (Ovis aries, UniProt P79208) pIC50 of CS(=O)(=O)c1ccc(/C(=C2\CCOC2=O)c2ccccc2)cc1 [28 (E isomer)] is 4.74

The reported COX-2 (Ovis aries, UniProt P79208) pIC50 of NS(=O)(=O)c1ccc(/C(=C2\CCOC2=O)c2ccc(F)c(Cl)c2)cc1 [143 (Z isomer)] is 7.14

The reported COX-2 (Ovis aries, UniProt P79208) pIC50 of NS(=O)(=O)c1ccc(/C(=C2\CCOC2=O)c2ccc(Cl)cc2)cc1 [125 (Z isomer)] is 7.22

The reported COX-2 (Ovis aries, UniProt P79208) pIC50 of CS(=O)(=O)c1ccc(/C(=C2\CCOC2=O)c2ccc(Cl)c(Cl)c2)cc1 [18 (Z isomer)] is 6.88

The reported COX-2 (Ovis aries, UniProt P79208) pIC50 of Cc1ccc(/C(=C2/CCOC2=O)c2ccc(S(N)(=O)=O)cc2)cc1F [130 (Z isomer)] is 6.88

The reported COX-2 (Ovis aries, UniProt P79208) pIC50 of CS(=O)(=O)c1ccc(/C(=C2\CCOC2=O)c2ccc(F)cc2)cc1 [4 (E isomer)] is 6.17

The reported COX-2 (Ovis aries, UniProt P79208) pIC50 of CS(=O)(=O)c1ccc(/C(=C2\CCOC2=O)c2ccc(Br)cc2)cc1 [100 (Z isomer)] is 6.78

The reported COX-2 (Ovis aries, UniProt P79208) pIC50 of CS(=O)(=O)c1ccc(/C(=C2\CCOC2=O)c2ccc(Cl)cc2)cc1 [8 (Z isomer)] is 6.74

The reported COX-2 (Ovis aries, UniProt P79208) pIC50 of CS(=O)(=O)c1ccc(/C(=C2\CCOC2=O)c2ccc(F)c(Cl)c2)cc1 [95 (Z isomer)] is 6.69

The reported COX-2 (Ovis aries, UniProt P79208) pIC50 of CS(=O)(=O)c1ccc(/C(=C2\CCOC2=O)c2cccc(F)c2)cc1 [13 (Z isomer)] is 6.21

The reported COX-2 (Ovis aries, UniProt P79208) pIC50 of CS(=O)(=O)c1ccc(/C(=C2\CCOC2=O)c2ccc(F)c(F)c2)cc1 [54 (Z isomer)] is 6.15

The reported COX-2 (Ovis aries, UniProt P79208) pIC50 of CS(=O)(=O)c1ccc(/C(=C2\CCOC2=O)c2cc(Cl)cc(Cl)c2)cc1 [70 (Z isomer)] is 6.65

The reported COX-2 (Ovis aries, UniProt P79208) pIC50 of NS(=O)(=O)c1ccc(/C(=C2\CCOC2=O)c2ccc(F)cc2)cc1 [60 (E isomer)] is 6.53

The reported COX-2 (Ovis aries, UniProt P79208) pIC50 of Cc1cccc(/C(=C2/CCOC2=O)c2ccc(S(C)(=O)=O)cc2)c1 [49 (Z isomer)] is 6.38

The reported COX-2 (Ovis aries, UniProt P79208) pIC50 of CS(=O)(=O)c1ccc(/C(=C2/CCOC2=O)c2cccc(Cl)c2)cc1 [23 (E)] is 6.20

The reported COX-2 (Ovis aries, UniProt P79208) pIC50 of Cc1cc(/C(=C2/CCOC2=O)c2ccc(S(N)(=O)=O)cc2)ccc1F [135 (Z isomer)] is 6.61
